# target or system: UniProt:P04629
# Sequence (P04629 441-796): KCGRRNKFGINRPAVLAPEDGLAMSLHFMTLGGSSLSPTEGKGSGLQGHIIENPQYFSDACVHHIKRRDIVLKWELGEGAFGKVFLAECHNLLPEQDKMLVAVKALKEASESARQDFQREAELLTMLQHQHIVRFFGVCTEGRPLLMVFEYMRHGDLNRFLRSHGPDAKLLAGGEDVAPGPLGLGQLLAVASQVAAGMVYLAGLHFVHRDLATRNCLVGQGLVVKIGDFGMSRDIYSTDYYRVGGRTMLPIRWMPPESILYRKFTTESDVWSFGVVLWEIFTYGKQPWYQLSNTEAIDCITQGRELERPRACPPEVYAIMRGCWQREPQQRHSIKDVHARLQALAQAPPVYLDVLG
# procedure text: Isolated TRK enzyme assay (HTRF KinEASE-TK), TRKA
# Assay type: biochemical
# study conditions: read-out: Trka enzyme (IC50)
pIC50: −log10 of the molar value.
Everything with pIC50 lower than 6 is not fulfilled; everything else, including exactly 6, is fulfilled.

Reference set, count: 5
- query smiles: "CC(C)n1cc(C(=O)c2cncc(NC(=O)Cc3cccc(S(C)(=O)=O)c3)c2)c2cncnc21"
  category label: "fulfilled"
- query smiles: "O=C(Cc1ccc(Cl)c(Cl)c1)Nc1cncc(C(=O)c2cn(C3COC3)c3ncncc23)c1"
  category label: "fulfilled"
- query smiles: "Cn1cc(C(=O)c2cncc(NC(=O)Cc3cc(F)c(F)cc3F)c2)c2cncnc21"
  category label: "fulfilled"
- query smiles: "CCc1nn2cc(CC(=O)Nc3cncc(C(=O)c4cn(C(C)C)c5ncncc45)c3)nc2s1"
  category label: "not fulfilled"
- query smiles: "CC(C)n1cc(C(=O)c2cncc(NC(=O)c3[nH]nc4ccccc34)c2)c2cncnc21"
  category label: "fulfilled"

Now, please, on to the next compound.
In: Check this compound for pIC50 at or above 6: CC(C)n1cc(C(=O)c2cncc(NC(=O)c3coc(C4CC4)n3)c2)c2cncnc21
Out: fulfilled

Reference for the values: patent US8846698B2
